Ref: patent US10149911B2

Assay: Solubility test in 10% CD or CD derivative solution
Assay type: physicochemical
Details: aqueous with cosolvent or surfactant or cyclodextrin, thermodynamic from solid, 10% Methyl-β-cyclodextrin solution, room temperature
Description: To 5 mL of a 10% CD or CD derivative solution, about 100 mg of Compound A monohydrate was added, and stirred at room temperature for 24 hours. To the solutions in which αCD, HPαCD, DMβCD and methyl-β-cyclodextrin were used, about 100 mg of Compound A monohydrate was added after 6 hours. After centrifugation (3000 rpm, 10 minutes), the supernatant was filtered with a filter, and the solubility was measured by the HPLC method.
Measured Endpoint: solubility at 24 h (mg/mL)
Entry rule: numbers only, all in mg/mL.

Query: Please look at this compound and report its solubility at 24 h: CNC(=O)[C@@](C)(C(=O)NO)N(C)C(=O)c1ccc(C#Cc2ccc([C@H](O)CO)cc2)cc1 [Compound A monohydrate]
Reply: 17.5
